# Test system: SK-MEL-5 melanoma
# assayRemarks: NCI tumour cell line growth inhibition, 48 h
TGI listing for selected compounds.

Query COc1cc(-c2oc3ccccc3c(=O)c2O)cc(OC)c1OC yields TGI of > 100 µM

----------
# Tested on: KM12 colon
# assayRemarks: NCI tumour cell line growth inhibition, 48 h
TGI listing for selected molecules.

Worked cases, answers included:
molecule | TGI
c1c(N2CCOCC2)ssc1=[N+]1CCOCC1 | > 100 µM
O=C1N[C@@H]2CCC[C@@H]2[C@@H]1c1ccc(Cl)cc1 | > 100 µM
C[n+]1c(-c2ccc(NC(=O)c3ccc(C(=O)Nc4ccc(-c5cn6ccccc6[n+]5C)cc4)cc3)cc2)cn2ccccc21 | > 100 µM

The recorded TGI for entry CC(C)(C)OC(=O)NCC(C#N)CNC(=O)OC(C)(C)C equals > 100 µM

Looking up Cc1cc2c(C(C)C)c(O)c(O)c(C=Nc3cc(C(F)(F)F)ccc3Cl)c2c(O)c1-c1c(C)cc2c(C(C)C)c(O)c(O)c(C=Nc3cc(C(F)(F)F)ccc3Cl)c2c1O , I see its TGI listed as 92.4 µM

----------
# Tested on: RXF 393 renal
# assayRemarks: NCI tumour cell line growth inhibition, 48 h
Reported values of TGI for individual entries

compound | system | TGI
NCCCCNCCCNC(=O)CNC(=O)CC(O)C(N)CCCC(NC(=O)C(CN)NC(=O)C(O)CNC(=O)CC(N)c1ccc(O)cc1)C(=O)O (centres undefined) | RXF 393 renal | > 10 µM
O=C1N/N=C\c2ccc(cc2)OCc2cccc(n2)COc2ccc(cc2)/C=N\NC1=O | RXF 393 renal | > 25 µM
N#Cc1nc(C2CCC(=O)O2)oc1N (centres undefined) | RXF 393 renal | > 100 µM

// next item, TGI requested
TGI measured on CCCO/N=[N+](\[O-])N(CC)CC = > 100 µM

----------
# System: SK-MEL-28 melanoma
# assayRemarks: NCI tumour cell line growth inhibition, 48 h
endpoint: TGI (µM)
Please respond with the number in µM and leave the unit unwritten.

Solved cases (4 shown):
compound | unitsOfMeasure | TGI
C#C[C@]1(O)CC[C@H]2[C@@H]3CC=C4c5nc(Nc6ccccn6)sc5CC[C@]4(C)[C@H]3CC[C@@]21C | µM | 1.01
Clc1ccccc1NN(Cc1ccccn1)c1ccccc1Cl | µM | 43.4
CCOC(=O)/C=C(/C=C\COC1CCCCO1)c1ccccc1 (stereo not drawn) | µM | 85.7
N/C(=N\OC(=O)c1ccccc1)C(C(=O)NOC(=O)c1ccccc1)C1CCCCC1 (stereo not drawn) | µM | 50.7

For the next question, use this compound.
// TGI (SK-MEL-28 melanoma) for N=C(N)c1ccc(-c2ccc(-c3ccc(Cl)cc3Cl)o2)cc1 = 3.03

----------
# System: DU-145 prostate
# assayRemarks: NCI tumour cell line growth inhibition, 48 h
endpoint: TGI

Reference set (5 entries):
molecule | result
CSc1ccc(/C=C2\CNC/C(=C\c3ccc(SC)cc3)C2=O)cc1 | > 371 µM
Cc1ccc2c(c1C)CC1(Cc3c(C)ccc(C)c3C1=O)C2=O (stereo not given) | > 100 µM
COc1ccc(OC/C(N=Cc2ccncc2)=N/NC(=O)c2ccncc2)cc1 | > 100 µM
Clc1cc(C(c2cc(Cl)sc2Cl)c2cc(Cl)sc2Cl)c(Cl)s1 | > 100 µM
CC(=O)C1(O)CCC2(O)C3(O)CC=C4CC(O)CCC4(C)C3CC(OC(=O)c3ccc(O)cc3)C12C (stereo not given) | > 100 µM

Looking up CCOC(=O)/C=C(/C=C\COC1CCCCO1)c1ccccc1 (stereo not given) , I found its TGI recorded as > 100 µM

Measured TGI, Nc1nncc2[nH]cnc12 : > 100 µM

Value of measured TGI for the entry CCC(=O)Nc1ccc(NS(=O)(=O)c2ccc(Cl)cc2)cc1 : > 100 µM

Entry CCOc1ccc(NCC2CC/C(=C\C=C\c3ccccc3)C2=O)cc1 (stereo not given) ; TGI = > 93.3 µM

Consider N#Cc1nc(CCCN2C(=O)c3ccccc3C2=O)oc1N . Its measured TGI is > 100 µM

----------
# Tested on: SK-MEL-5 melanoma
# assayRemarks: NCI tumour cell line growth inhibition, 48 h
endpoint: TGI

compound | TGI
O=C(CC(C(=O)c1cccs1)c1ccc2c(c1)OCO2)c1ccc(Br)cc1 (stereo unspecified) | > 100 µM
CC(=O)N(CCN)CCN | > 100 µM
CCOC(=O)C1(C(=O)OCC)CCC(C(OC)OC)C(CC(=O)OC)C1 (stereo unspecified) | > 10 µM
Cc1ccc(C(=O)Cc2nc3c([nH]c2=O)c(C)nn3-c2ccccc2)c(C)c1 | > 10 µM
Clc1ccccc1NN(Cc1ccccn1)c1ccccc1Cl | 27.9 µM

# ---- query compound ----
// compound Fc1cccc(Cl)c1C1SCc2nc3ccccc3n21 (stereo unspecified) , assay SK-MEL-5 melanoma, TGI value: 29.7 µM

----------
Each entry below carries its reported TGI.
# Tested on: KM12 colon
# assayRemarks: NCI tumour cell line growth inhibition, 48 h

Below, 5 compounds whose answers are already recorded.
compound | result
COc1cccc(N2C(=O)CS(=O)(=O)C2c2cccc(Oc3ccccc3)c2)c1 (stereo not given) | > 100 µM
Fc1cccc(Cl)c1C1SCc2nc3ccccc3n21 (stereo not given) | 59.5 µM
COc1cc2c3cc1Oc1c(OC)c(OC)cc4c1C(Cc1ccc(O)c(c1)Oc1ccc(cc1)CC3N(C)CC2)CN(C)C4 (stereo not given) | 26.3 µM
O=c1c(-c2ccccc2)c(SCCN2CCCCCC2)n(-c2ccccc2)c(=S)n1-c1ccccc1 | > 100 µM
COc1ccc(OC)c(-c2cc(-c3ccccc3)nn2-c2ccc(S(=O)(=O)NC(C)=O)cc2)c1 | 39.6 µM

For this compound ( C[C@H](c1ccccc1)N1C(=O)[C@@H](OCc2ccccc2)[C@H]1[C@H](COC(=O)COCc1ccccc1)OCc1ccccc1 ), measured TGI is > 100 µM

----------
# System: SK-MEL-28 melanoma
# assayRemarks: NCI tumour cell line growth inhibition, 48 h
// TGI lookup, one value per entry

The following compounds have reported results that may help.
compound | TGI
O=C1c2ccccc2N2OC3(N4CCCC4)CCCC3C12c1ccccc1 (stereo not drawn) | > 100 µM
CC(C)=CCC12Cc3ccc(O)cc3C(C(C)CN1)C2C (stereo not drawn) | > 100 µM

Next, consider the following compound.
Form: compound = O=C1N[C@@H]2CCC[C@@H]2[C@@H]1c1ccc(Cl)cc1 ; TGI = > 100 µM

----------
# System: KM12 colon
# assayRemarks: NCI tumour cell line growth inhibition, 48 h
endpoint: TGI

molecule | TGI
Cc1nnc2n1-c1ccccc1N(Cc1ccccc1)CC2 | > 100 µM

Lab note: measured TGI of COc1cc(-c2csc(NC(=O)c3cc(C(F)(F)F)cc(C(F)(F)F)c3)n2)cc(OC)c1OC was > 100 µM

# TGI (molecule: O=P(OCc1ccccc1)(OCc1ccccc1)C(O)/C=C/c1ccccc1 (centres undefined) ) is 43.1 µM

----------
Reported TGI is given for each of the following compounds.
# Test system: KM12 colon
# assayRemarks: NCI tumour cell line growth inhibition, 48 h

The following compounds have reported results that may help.
compound | TGI
C/C(=N/N(C=O)C[n+]1ccccc1)C(CN(CC(C)C)CC(C)C)C(=O)Nc1ccc(C)cc1C (stereo unspecified) | > 100 µM
N#Cc1ccc(-c2nc(C#N)c(N)o2)cc1 | > 10 µM
CON(C)C(=O)C(C)NC(=O)OCc1ccccc1 (stereo unspecified) | > 100 µM
Cn1c2c(c3ccccc31)CCN1C(=O)C34CCCC3CC21S4 (stereo unspecified) | > 100 µM
O=P1(C(O)/C=C/c2ccccc2)N(Cc2ccccc2)[C@@H]2CCCC[C@H]2N1Cc1ccccc1 (stereo partly specified) | 19.5 µM
Cc1cc(OCc2nnc3sc(NC(=O)c4ccccc4)nn23)ccc1Cl | 52.6 µM
S=C(N/N=C/c1cc(Cl)cc(Cl)c1)NC12CC3CC(CC(C3)C1)C2 | > 100 µM
CC1(C)N=C(N)N=C(N)N1c1cccc(OCc2cccc(N)c2)c1 | > 100 µM

Measured TGI, COc1ccc(Cl)cc1Nc1nc(C(F)(F)F)ccc1C(=O)NN : > 100 µM

Form field TGI, entry C#CCOCC12C=CC(O1)C1COC(=O)C12 (stereo unspecified) : > 100 µM

// field: TGI; key: Cc1cccc(NS(=O)(=O)c2ccc(N=Nc3c(O)c(C(=O)O)cc4ccccc34)cc2)n1 ; value = > 100 µM
